Known Absorption max. of a selection of compounds
test: Absorption spectra and extinction coefficients of dyes; type: physicochemical; details: Methanol
measure: Absorption max. (nm)

INSERT INTO measurements (compound, output_unit, readout_value) VALUES
  ('CN1\C(=C/C=C/C=C/C=C/C2=[N+](C)c3ccc(I)cc3C2(C)C)C(C)(C)c2cc(I)ccc21.[I-]', 'nm', 753),
  ('C[N+]1=C(C=CC=CC=CC=C2N(CCCCS(=O)(=O)[O-])c3ccc(S(=O)(=O)O)cc3C2(C)C)C(CCCCCC(=O)O)c2c(I)cc(I)cc21 (centres unmarked)', 'nm', 750),
  ('CN1\C(=C/C=C/C=C/C=C/C2=[N+](C)c3ccccc3C2(C)C)C(C)(C)c2ccccc21.[I-] [HITC, reference compound]', 'nm', 740),
  ('CN1\C(=C/C=C/C=C/C=C/C2=[N+](C)c3cc(Br)c(Br)c(Br)c3C2(C)C)C(C)(C)c2c1cc(Br)c(Br)c2Br.[I-]', 'nm', 748),
  ('CN1\C(=C/C=C/C=C/C=C/C2=[N+](C)c3cc(I)c(I)c(I)c3C2(C)CCCCCC(=O)O)C(C)(CCCCCC(=O)O)c2c1cc(I)c(I)c2I.[I-] (centres unmarked)', 'nm', 755),
  ('CN1\C(=C/C=C/C=C/C=C/C2=[N+](C)c3cc(I)cc(I)c3C2(C)C)C(C)(C)c2c(I)cc(I)cc21.[I-]', 'nm', 745),
  ('CC(C)(C)C1=CC(=C/C=C/C=C/C=C/C2=[N+](CCCS(=O)(=O)[O-])c3ccc(I)cc3C2(C)CCCCCC(=O)O)C=C(C(C)(C)C)O1 (centres unmarked)', 'nm', 794),
  ('CN(C)c1ccc(SC2=C(/C=C/C3=[N+](C)c4ccc(I)cc4C3(C)C)CCC/C2=C\C=C2/N(C)c3ccc(I)cc3C2(C)C)cc1.[I-]', 'nm', 792),
  ('CN1/C(=C\C=C2/CCCC(/C=C/C3=[N+](C)c4cc(I)c(I)c(I)c4C3(C)C)=C2Cl)C(C)(C)c2c1cc(I)c(I)c2I.[I-]', 'nm', 787),
  ('CN1\C(=C/C=C/C=C/C=C/C2=[N+](C)c3cc(I)c(I)c(I)c3C2(C)CCCCCC(=O)N2CC[N+]3(CC2)CC[N+]2(CCNCC2)CC3)C(C)(CCCCCC(=O)N2CC[N+]3(CC2)CC[N+]2(CCNCC2)CC3)c2c1cc(I)c(I)c2I.[Cl-].[Cl-].[Cl-].[Cl-].[Cl-] (centres unmarked)', 'nm', 759),
  ('CC1(CCCCCC(=O)NCCS(=O)(=O)O)C(/C=C/C=C/C=C/C=C2\N(CCCS(=O)(=O)O)c3cc(I)c(I)c(I)c3C2(C)CCCCCC(=O)NCCS(=O)(=O)O)=[N+](CCCS(=O)(=O)[O-])c2cc(I)c(I)c(I)c21 (centres unmarked)', 'nm', 764);
